Experimental Parameters: in ethanol, 334 K
Metric Name: solubility (mole fraction)
Give the figure by itself; no unit, no explanation.

## Task Please report solubility (mole fraction) for the following molecule: CCn1nc(C(=O)O)c(=O)c2cc3c(cc21)OCO3
## Result 0.0002
